Tested on: female CBA/J mice
protocol: In vivo toxicity, bolus ip
conditionSummary: 10 mg/kg bolus ip, day 5
Non-standard residues stand in square brackets, D forms with d. Residues, ends and D or L forms follow the SMILES beside them. Nva = CCC[C@H](N)C(=O)O
assayReadout: Kidney weight relative to total weight (%)
State just the number; it will be interpreted in %.

Notebook: CCC[C@H](NC(=O)[C@@H]1CCCN1C(=O)[C@@H](NC(=O)[C@H](N)CC(N)=O)[C@@H](C)CC)C(=O)N[C@@H](CC(C)C)C(=O)N[C@@H](Cc1ccc(O)cc1)C(=O)N[C@H](CO)C(=O)N[C@@H](Cc1ccccc1)C(=O)N[C@@H](C)C(=O)N[C@H](CO)C(N)=O [ADP 355-NH2] (H-[dN]IP[Nva]LY[dS]FA[dS]-NH2) , Kidney weight relative to total weight (%) read as 1.6
